Attribute: Abs 630 (25 nM)
# system tested: T1, human IL-10 receptor (hIL-10R alpha and beta chains) on HEK-Blue IL-10 reporter cells (human, UniProt Q13651 22-578; Q08334 20-325)
# T1 sequence 1: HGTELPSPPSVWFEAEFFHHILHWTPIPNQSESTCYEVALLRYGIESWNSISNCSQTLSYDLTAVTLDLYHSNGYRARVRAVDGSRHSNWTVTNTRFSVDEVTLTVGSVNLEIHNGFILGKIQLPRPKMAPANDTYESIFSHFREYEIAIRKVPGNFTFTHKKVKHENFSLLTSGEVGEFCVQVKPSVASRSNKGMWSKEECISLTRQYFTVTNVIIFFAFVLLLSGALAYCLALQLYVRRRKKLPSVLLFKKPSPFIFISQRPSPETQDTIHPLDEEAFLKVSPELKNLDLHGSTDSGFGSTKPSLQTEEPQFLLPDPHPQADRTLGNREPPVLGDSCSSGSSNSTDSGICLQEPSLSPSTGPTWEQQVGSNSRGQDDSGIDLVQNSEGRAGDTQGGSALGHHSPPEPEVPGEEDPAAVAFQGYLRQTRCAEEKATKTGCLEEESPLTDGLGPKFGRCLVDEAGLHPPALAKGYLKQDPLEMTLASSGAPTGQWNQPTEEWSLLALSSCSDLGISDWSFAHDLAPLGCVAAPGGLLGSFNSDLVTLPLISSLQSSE
# T1 sequence 2: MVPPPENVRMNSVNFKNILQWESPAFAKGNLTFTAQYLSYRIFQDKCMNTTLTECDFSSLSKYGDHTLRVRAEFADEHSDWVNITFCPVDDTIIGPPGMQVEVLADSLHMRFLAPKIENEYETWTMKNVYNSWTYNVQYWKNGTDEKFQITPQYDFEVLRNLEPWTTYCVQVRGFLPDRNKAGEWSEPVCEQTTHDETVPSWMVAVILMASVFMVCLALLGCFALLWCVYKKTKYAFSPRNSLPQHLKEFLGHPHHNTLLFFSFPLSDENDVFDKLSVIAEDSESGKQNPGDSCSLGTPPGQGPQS
# assay: cell-based or functional assay
property label: Abs 630 (25 nM) (Abs 630)

binder: IL10R binding molecule of SEQ ID NO: 282 (bispecific antibody) QVQLQESGGGSVQAGGSLRLSCAVSGYAYSTYCMGWFRQAPGKEREGVAAIDSGGSTSYADSVKGRFTISKDNAKNTLYLRMNSLKPEDTAMYYCAAVPPPPDGGSCLFLGPEIKVSKADFRYWGQGTQVTVSSGGGSQVQLQESGGGSVQAGGSLRLSCAASGYSYSSYCMGWFRQAPGKEREGVATIDSDGMTRYADSVKGRFTISKDNAKNTLYLQMNSLKPEDTAMYYCAAPLYDCDSGAVGRNPPYWGQGTQVTVSSASHHHHHH
unit symbol: Abs 630
reported result: 0.44
//
binder: IL10R binding molecule of SEQ ID NO: 259 (bispecific antibody) QVQLQESGGGSVQAGGSLRLSCAASRYLYSIDYMAWFRQSPGKEREPVAVIYTASGATFYPDSVKGRFTISQDNAKMTVYLQMNSLKSEDTAMYYCAAVRKTDSYLFDAQSFTYWGQGTQVTVSSGGGSQVQLQESGGGSVQAGGSLRLSCTVSRYTASVNYMGWFRQAPGKEREGVATIFTGAGTTYYANSVKGRFTISRDNAKNTAYLQMNSLKPEDTAIYYCAVDFRGGLLYRPAYEYTYRGQGTQVTVSSASHHHHHH
unit symbol: Abs 630
reported result: 1.85

Data credit: patent US20250163167A1
